Tested on: CRL-7250
Experiment: Cytotoxic Profiling of Annotated Libraries Using Quantitative High-Throughput Screening (AID 1296008); note: % is set by controls: 0 for no effect and ±100 for the full control effect; nearly all actives have a fitted effect of over 60% in size
Settings: Five cell lines viability, CellTiter-Glo ATP luminescence, 48-72 h; stronger effect = lower value
Results filed as inconclusive are left out.
measured-metric: max response (%)
Your answer is read as %, so omit the unit and give the number.

Below, 8 compounds whose answers are already recorded.
| compound | uom | max response |
| --- | --- | --- |
| O=C(O)C[C@H]1CCC(=O)[C@@H]1C/C=C\CCOC1OC(CO)C(O)C(O)C1O (some centres not stated) | % | -7.42 |
| C=CC(C)(O)CC/C=C(\C)C(=O)OCC1OC(OC2CCC3(C)C(CCC4(C)C3CC=C3C5CC(C)(C)C(O)CC5(C(=O)O)CCC34C)C2(C)C)C(O)C(OC2OC(CO)C(O)C(OC3OC(CO)C(O)C(OC4OC(COC5OC(CO)C(O)C(O)C5O)C(O)C(O)C4O)C3O)C2O)C1O (configuration not stated) | % | -1.92 |
| CC1CCC2C(C(=O)O)=CC3C(O)C(C)(C)CC123 (configuration not stated) | % | -11.2 |
| CC1=CC(=O)CC(C)(C)C1CCC(C)OC1OC(COC(=O)c2cc(O)c(O)c(O)c2)C(O)C(O)C1O (configuration not stated) | % | -1.65 |
| CC1=C2C3OC(=O)C(C)C3(O)CCC2(C)CCC1=O (configuration not stated) | % | -29.1 |
| CN(C)c1cccc(-c2c3c(=O)n(-c4ccccc4Cl)[nH]c3cc(=O)n2C)c1 | % | 3.76 |
| C=CCc1ccc(O[C@@H]2O[C@H](CO[C@@H]3O[C@@H](C)[C@H](O)[C@@H](O)[C@H]3O)[C@@H](O)[C@H](O)[C@H]2O)cc1 | % | -0.302 |
| O=C1N(CC2CCCCN2)CCN1c1ccccc1 (configuration not stated) | % | -3.2 |

IN: Suppose we examine the compound "CC[C@H]1OC(=O)[C@H](C)[C@@H](O[C@H]2C[C@@](C)(OC)[C@@H](O)[C@H](C)O2)[C@H](C)[C@@H](O[C@@H]2O[C@H](C)C[C@H](N(C)C)[C@H]2O)[C@@](C)(O)C[C@@H](C)[C@@H]2N[C@@H](COCCOC)OC([C@H]2C)[C@]1(C)O" ; what max response value has been reported?
OUT: -11.1

IN: Suppose we examine the compound C[C@@H]1O[C@@H](O[C@H]2[C@H](OC(=O)[C@]34CCC(C)(C)C[C@H]3C3=CCC5[C@@]6(C)C[C@H](O)[C@H](O[C@@H]7O[C@H](CO)[C@@H](O[C@@H]8O[C@H](CO)[C@@H](O)[C@H](O)[C@H]8O)[C@H](O)[C@H]7O)[C@@](C)(CO)C6[C@H](O)C[C@@]5(C)[C@]3(C)C[C@H]4O)OC[C@H](O)[C@@H]2O)[C@H](O)[C@H](O)[C@H]1O[C@@H]1OC[C@@H](O)[C@H](O[C@@H]2OC[C@](O)(CO)[C@H]2O)[C@H]1O (some centres not stated) ; what max response value has been reported?
OUT: 4.17

IN: Suppose we examine the compound "O=S(=O)(NC1CCNCC1)c1cc(S(=O)(=O)c2ccccc2)ccc1C(F)(F)F" ; what max response value has been reported?
OUT: 1.06

IN: Suppose we examine the compound "C[C@H]1[C@H](C)CC[C@]2(C(=O)O)CC[C@]3(C)C(=CC[C@@H]4[C@@]5(C)C[C@@H](O)[C@H](O)[C@@](C)(CO)[C@@H]5CC[C@]43C)[C@H]12" ; what max response value has been reported?
OUT: 0.188

====

Test system: Zika virus NS2B-NS3 protease (linked construct)
Experiment: Primary screen NINDS Rhodamine qHTS for Zika virus inhibitors (AID 1347160); note: % is set by controls: 0 for no effect and ±100 for the full control effect; nearly all actives have a fitted effect of over 55% in size
Conditions: purified NS2B-NS3 protease, Rhodamine110 substrate fluorescence; series mostly up to 57.1 µM
Inconclusive results are not listed. The source made the active and inactive calls. Calls come from the whole dose curve; as a rule, active = well fitted inhibition curve with a large enough effect; inconclusive = small, poorly fitted or top-dose-only effect; inactive = no such curve, though single readings can be large or run the other way.
measured-metric: activity change, negative = inhibition

| compound | activity change, negative = inhibition |
| --- | --- |
| C[C@@H]1O[C@@H](O[C@H]2[C@H](OC(=O)[C@]34CCC(C)(C)C[C@H]3C3=CCC5[C@@]6(C)CC[C@H](O[C@@H]7O[C@H](CO[C@@H]8OC[C@H](O)[C@H](O)[C@H]8O)[C@@H](O)[C@H](O)[C@H]7O)C(C)(C)C6CC[C@@]5(C)[C@]3(C)C[C@H]4O)OC[C@@H](O)[C@@H]2O)[C@H](O)[C@H](O)[C@H]1O[C@@H]1OC[C@H](O)[C@H](O[C@@H]2OC[C@@H](O)[C@H](O)[C@H]2O)[C@H]1O (stereo partly specified) | -14.5% [at 10.7 µM] (inactive) |
| C[C@@H]1O[C@@H](O[C@H]2[C@H](O[C@H]3CC[C@@]4(C)C(CC[C@]5(C)C4CC=C4C6CC(C)(C)CC[C@]6(C(=O)O[C@@H]6O[C@H](CO[C@@H]7O[C@H](CO)[C@@H](O[C@@H]8O[C@@H](C)[C@H](O)[C@@H](O)[C@H]8O)[C@H](O)[C@H]7O)[C@@H](O)[C@H](O)[C@H]6O)CC[C@]45C)[C@]3(C)CO)OC[C@H](O)[C@@H]2O)[C@H](O)[C@H](O)[C@H]1O (stereo partly specified) | 37.8% [at 10.7 µM] (inactive) |
| C/C=C(\C)C(=O)O[C@@H](C)[C@H]1CC[C@]2(O)C3CCC4C[C@@H](OC5CC(OC)C(OC6CC(OC)C(OC7CC(OC)C(OC8OC(C)C(OC9OC(CO)C(O)C(O)C9O)C(OC)C8O)C(C)O7)C(C)O6)C(C)O5)CC[C@]4(C)C3[C@H](O)[C@@H](O)[C@]12C (stereo partly specified) | 6.1% [at 10.7 µM] (inactive) |
| C[C@@H]1O[C@@H](O[C@H]2[C@H](OC(=O)C34CCC5(C)C(=CCC6C7(C)CC(O)C(O[C@@H]8O[C@H](C(=O)O)[C@@H](O)[C@H](O)[C@H]8O)C(C)(C(=O)O)C7CCC65C)C3CC(C)(C)CC4O)O[C@H](C)[C@@H](O)[C@@H]2O)[C@H](O)[C@@H](O[C@@H]2OC[C@](O)(CO)[C@H]2O[C@@H]2O[C@H](CO)[C@@H](O)[C@H](O)[C@H]2O)[C@H]1O (stereo partly specified) | -17.8% [at 10.7 µM] (inactive) |
| CC1(C)CC2C3=CCC4C5(C)CCC(OC6OC(C(=O)O)C(O)C(O)C6OC6OC(CO)C(O)C(O)C6OC6OC(CO)C(O)C(O)C6O)C(C)(CO)C5CCC4(C)C3(C)CCC2(C)C(OC2OCC(O)C(OC3OC(CO)C(O)C(O)C3O)C2O)C1O (stereo unspecified) | -17% [at 10.7 µM] (inactive) |

Would you kindly look at the next entry?
IN: Suppose we examine the compound CC(=O)O[C@@H]1[C@H](O[C@@H]2O[C@H](CO)[C@@H](O)[C@H](O)[C@H]2O)[C@@H](O[C@@H]2O[C@@H](C)[C@H](O)[C@@H](O[C@@H]3O[C@H](CO)[C@@H](O)[C@H](O)[C@H]3O)[C@H]2O)[C@H](OC(=O)C23CCC4(C)C(=CCC5C6(C)CC(O)C(O[C@@H]7O[C@H](C(=O)O)[C@@H](O)[C@H](O)[C@H]7O)C(C)(C(=O)O)C6CCC54C)C2CC(C)(C)CC3O)O[C@@H]1C (stereo partly specified) ; what activity change, negative = inhibition value has been reported?
OUT: 3.1% [at 10.7 µM] (inactive)

====

System: CP252
Test: qHTS profiling for inhibitors of Plasmodium falciparum proliferation (AID 504749);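 note: 0% = DMSO vehicle and full inhibition = artemisinin control; nearly all actives have a fitted effect of over 60% in size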
Details: P. falciparum in erythrocytes, SYBR Green DNA, 72 h; series mostly up to 28.7 µM
Records with an inconclusive call do not appear. Activity calls are given as the source filed them. Calls come from the whole dose curve; as a rule, active = well fitted inhibition curve with a large enough effect; inconclusive = small, poorly fitted or top-dose-only effect; inactive = flat fitted curve, though single readings scatter.
measured-metric: outcome

| compound | measured-metric | value-observed |
| --- | --- | --- |
| O=C(O)c1cc(O)c2c(c1)[O][Bi][O]2 | outcome | inactive |
| CCC(=O)NCCC1CCc2ccc3c(c21)CCO3 (stereo not drawn) | outcome | inactive |
| Cc1cc(C(=O)NNCc2ccccc2)no1 | outcome | inactive |

====

Test system: PC26
Assay: qHTS profiling for inhibitors of Plasmodium falciparum proliferation (AID 504749);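 note: 0% = DMSO vehicle and full inhibition = artemisinin control; nearly all actives have a fitted effect of over 60% in size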
Conditions: P. falciparum in erythrocytes, SYBR Green DNA, 72 h; series mostly up to 28.7 µM
Records with an inconclusive call do not appear. The source made the active and inactive calls. Calls come from the whole dose curve; as a rule, active = well fitted inhibition curve with a large enough effect; inconclusive = small, poorly fitted or top-dose-only effect; inactive = flat fitted curve, though single readings scatter.
Classes to choose from: TRUE (active), FALSE (inactive)

IN: Recorded call for CC1=CCC(C(C)(C)O)CC1 (centres undefined) ?
OUT: FALSE

IN: Recorded call for "C#CCOc1ccc2c(C)cc(=O)oc2c1" ?
OUT: FALSE
